Where these numbers come from: paper doi:10.1101/2024.09.22.614354

Target: T1, Rb^P M704V (human, UniProt P06400 380-788, M704V)
T1 sequence: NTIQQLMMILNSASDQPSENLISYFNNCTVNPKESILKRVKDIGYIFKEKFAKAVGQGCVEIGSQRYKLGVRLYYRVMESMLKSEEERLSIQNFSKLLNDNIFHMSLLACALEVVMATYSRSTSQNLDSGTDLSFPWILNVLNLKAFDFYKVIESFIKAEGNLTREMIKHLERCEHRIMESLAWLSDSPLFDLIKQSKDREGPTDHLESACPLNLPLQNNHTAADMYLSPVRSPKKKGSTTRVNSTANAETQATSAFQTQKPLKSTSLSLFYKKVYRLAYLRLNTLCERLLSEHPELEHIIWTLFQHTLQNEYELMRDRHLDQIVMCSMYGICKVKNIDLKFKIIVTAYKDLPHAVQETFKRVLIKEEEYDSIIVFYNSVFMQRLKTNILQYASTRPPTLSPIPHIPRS
Test: fluorescence polarisation
Where no end group is shown, it is not given here. TMR = tetramethyl rhodamine dye
ENDPOINT: Kd (µM)

BINDER | MEASURED NUMBER
{TMR}-GEGIRDLFDCDFGDLTPLD [TMR-E2F1^TD (peptide of the E2F1 transactivation domain, N-labeled with tetramethyl rhodamine)] | 0.046
